For each entry below, report its composite z-score value.
Biological target: Epidermal growth factor receptor (Homo sapiens)
Experiment: EGFR binders on small-molecule microarrays, primary screen, biochemical, small-molecule microarray, 635 nm fluorescence (AID 1104);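 also: score merges 667 nm emission intensity with spot signal to noise over triplicate slides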
Conditions: EGFR binding, higher = more signal
Lab note: jot down the number only; don't add units.

Qu. Return reported composite z-score; argument: COC(=O)[C@H](C)NC(=O)CCC1CC(OC(=O)NCc2ccc3c(c2)OCO3)CC2(CCCC(COC(=O)NCCCN3CCCC3=O)O2)O1 (some centres undefined)
Ans. 0.638

Qu. # query: composite z-score of entry O=C1[C@H]2[C@H]3[C@H](O)[C@H](O)CC(=NOC[C@@H](O)COCc4ccco4)[C@@H]3CC[C@H]2C(=O)N1c1cccc(Oc2ccccc2)c1
Ans. -0.094

Qu. I am curious: what composite z-score value has been reported for O=C1CCCC=C1C(O)COCc1ccccc1 (centres undefined) ?
Ans. -0.137

Qu. Entry COC(=O)C1=C(C)N(Cc2ccccc2)C2=C3C(=O)OCC[C@@H]3[C@@](O)(C(=O)OC)C(=O)N2[C@@H]1c1ccccc1 : reported composite z-score = ?
Ans. 0.526

Qu. Bench note: what composite z-score did CC(CCN1CCc2nc(-c3ccccc3)c(-c3ccccc3)cc2C1)=NO[C@H](C)c1cn([C@H](CO)Cc2ccccc2)nn1 show?
Ans. -0.0273

Qu. # get_value(readout='composite z-score', item= COc1ccc(COC(=O)NN=C2C[C@@H](O)[C@@H](O)[C@@H]3[C@@H]4C(=O)N(C(C)(C)C)C(=O)[C@@H]4CC[C@@H]23)cc1 )
Ans. 0.314

Qu. Reported composite z-score, molecule CCN1C(=O)[C@H]2[C@H]3[C@H](O)[C@H](O)CC(=NO[C@@H](C)c4cc(-c5c(C)cc(C)cc5C)no4)[C@@H]3CC[C@H]2C1=O : ____
Ans. 0.451

Qu. Field request: composite z-score | item: CO[C@H]1COC(=O)CCC[C@H](C)[C@@H](OC)COC(=O)CC=C[C@@H]1C
Ans. 0.711

Qu. Can you share its composite z-score? I mean this molecule: C[C@@H](c1ccccc1)N1C(=O)[C@H]2[C@H]3[C@H](O)[C@H](O)CC(=NOCc4ccccc4)[C@@H]3CC[C@H]2C1=O
Ans. -0.169

Qu. Return reported composite z-score; argument: CON(C)C(=O)c1nnc2c(n1)[nH]c1ccccc12
Ans. 0.319

Qu. Name the reported composite z-score value associated with the molecule C[C@@H](c1ccccc1)N1C(=O)[C@H]2[C@H]3[C@H](O)[C@H](O)CC(=NOC[C@@H](O)COCc4ccco4)[C@H]3CC[C@H]2C1=O
Ans. 1.07

Qu. Would you kindly share the measured composite z-score for C[C@@H]1CC[C@H]2C(=O)N3[C@@H](CC[C@@H](C)[C@@H]3c3ccc(Br)cc3)C(=O)N2[C@H]1c1ccc(Br)cc1 ?
Ans. 0.278

Qu. Name the reported composite z-score value associated with the molecule CCN1C(=O)[C@H]2[C@H]3[C@H](O)[C@H](O)CC(=NO[C@@H]4O[C@H](CO)[C@@H](O)[C@H](O)[C@H]4O)[C@H]3CC[C@H]2C1=O
Ans. 0.933

Qu. # composite z-score lookup, item CCCNC(=O)OC[C@H]1O[C@H](CCON=C2C[C@@H](O)[C@@H](O)[C@@H]3[C@@H]4C(=O)N(CC)C(=O)[C@@H]4CC[C@@H]23)C=C[C@@H]1Oc1ccc(OC)cc1
Ans. 0.611
